System: genes regulating the NF-κB pathway in human umbilical vein endothelial cells (HUVEC)
Assay: NF-κB pathway-specific gene expression microarray in HUVEC treated with PR peptides
Type: cell-based
Details: HUVEC, PR peptides 1 μM, 8 hours, relative to untreated controls
Protocol: Cell Culture. […] Total RNA Extraction and Gene Profiling by Microarray. […] The quality and quantity of total RNA was determined using RNA 6000 Nano chips (Agilent Technology, Santa Clara, Calif.). Gene profiling was performed using pathway-specific gene expression array for NF-κB signaling transduction (HS-016.2, SuperArray Bioscience Corp.). […] After background subtraction, the level of gene expression was determined as signal intensity units relative to total array intensity signal. […]
Marks after values point to notes of the source that are not given here. Ends that are not written are not given here.
experimental.endpoint: RANK gene expression

Asked: Report RANK gene expression for RRRPRPPYLPRW [Peptide W12]
Given back: 2.1^# fold change

Asked: Report RANK gene expression for RRAPRPPYLPR [Peptide A3]
Given back: 1.7* fold change

Asked: Report RANK gene expression for RRRPRPPYLPR [PR11, reference compound]
Given back: 1.5* fold change

Asked: Report RANK gene expression for RRRPRPPELPRW [Peptide E8W12]
Given back: 1.8^# fold change

Asked: Report RANK gene expression for RRKPRPPYLPR [Peptide K3]
Given back: 1.7* fold change

====

Test system: genes regulating the NF-κB pathway in human umbilical vein endothelial cells (HUVEC)
Experiment: NF-κB pathway-specific gene expression microarray in HUVEC treated with PR peptides
Type: cell-based
Details: HUVEC, PR peptides 1 μM, 8 hours, relative to untreated controls
Marks after values point to notes of the source that are not given here. Ends that are not written are not given here.
Assignment: determine reported NF-κB2 gene expression for the given sequences.

Asked: Report NF-κB2 gene expression for RRRPRPPYLPRW [Peptide W12]
Given back: −1.9* fold change

Asked: Report NF-κB2 gene expression for ARRPRPPELPR [Peptide A1E8]
Given back: −3.5* fold change

Asked: Report NF-κB2 gene expression for KRRPRPPELPR [Peptide K1E8]
Given back: −2.3* fold change

Asked: Report NF-κB2 gene expression for RRRPRPPYLPR [PR11, reference compound]
Given back: −3.3^# fold change

====

Assignment: determine reported JNK1 gene expression for the given sequences.
Test system: genes regulating the NF-κB pathway in human umbilical vein endothelial cells (HUVEC)
Experiment: NF-κB pathway-specific gene expression microarray in HUVEC treated with PR peptides
Assay type: cell-based
Details: HUVEC, PR peptides 1 μM, 8 hours, relative to untreated controls
Marks after values point to notes of the source that are not given here. Ends that are not written are not given here.

Asked: Report JNK1 gene expression for RRKPRPPYLPR [Peptide K3]
Given back: −3.2* fold change

Asked: Report JNK1 gene expression for RRRPRPPYLPRW [Peptide W12]
Given back: −5.3* fold change

Asked: Report JNK1 gene expression for RRRPRPPYLPR [PR11, reference compound]
Given back: −6.5^# fold change

====

Test system: genes regulating the NF-κB pathway in human umbilical vein endothelial cells (HUVEC)
Test: NF-κB pathway-specific gene expression microarray in HUVEC treated with PR peptides
Assay type: cell-based
Conditions: HUVEC, PR peptides 1 μM, 8 hours, relative to untreated controls
Marks after values point to notes of the source that are not given here. Ends that are not written are not given here.
Assignment: determine reported MEKK1 gene expression for the given sequences.

Asked: Report MEKK1 gene expression for RRRPRPPYLPR [PR11, reference compound]
Given back: −2.9* fold change

Asked: Report MEKK1 gene expression for RKRPRPPYLPR [Peptide K2]
Given back: −5.3* fold change

Asked: Report MEKK1 gene expression for RRRPRPPYLPRW [Peptide W12]
Given back: −4.6* fold change
